Provenance of the data: PubChem BioAssay (NCI)

- Tested on: K-562 leukemia
- Test Method Notes: NCI-60 one-dose screen, 48 h (100 = growth as untreated, 0 = no growth, -100 = all killed)
- Applied Conditions: 10 µM unless noted
This is part of a sample that, as a whole, favours compounds with a hit. Of some 83,000 tested, about 20% had one in any assay. Calls of active or inactive are those of the source. Rule for the calls: active = growth percent below 10; inactive = the rest.
Catalogue of growth values

Input line: Item CN1C(=C2C(=O)OC(C)(C)OC2=O)CCC1C(=O)NCc1ccc(Cl)cc1Cl (centres undefined) has what recorded growth?
Output line: 97.5% (inactive)

Input line: Need growth of COc1ccc(C(Cc2ccccc2)NCCN2CCOCC2)cc1 (centres undefined) , thanks.
Output line: 101% (inactive)

Input line: Please give the measured growth for this compound: Cc1ccc(C(=O)NN2C(=O)CSC2c2cccc([N+](=O)[O-])c2)cn1 (centres undefined)
Output line: 98.9% (inactive)

Input line: Field request: growth | item: Cc1nc2ccccc2c(/C=C/c2ccccc2)c1C(=O)/C=C/c1ccc(C(F)(F)F)cc1
Output line: 1.82% (active)

Input line: Need growth of O=[N+]([O-])c1ccccc1NCSc1ccc(Cl)cc1 , thanks.
Output line: 93.1% (inactive)

Input line: I would be grateful if you could share the reported growth for CC(=O)N1N=C(c2ccc(Nc3nc(Nc4ccc(F)cc4)nc(Nc4ccc(Cl)cc4)n3)cc2)CC1c1ccc(Cl)cc1 (centres undefined) .
Output line: 88.1% (inactive)

Input line: Recorded growth of Cc1cccc2c(=O)c3c(sc12)c(NCc1ccccc1)nc1ccccc13 , please.
Output line: 101% (inactive)

Input line: Reported growth for Cc1c(C(=O)NCCCc2ccccc2)sc2ncc(-c3ccc(Br)cc3)n12 : what is it?
Output line: 101% (inactive)

* * *

- System: SNB-75 CNS
- Test Method Notes: NCI-60 one-dose screen, 48 h (100 = growth as untreated, 0 = no growth, -100 = all killed)
- Applied Conditions: 10 µM unless noted
Compounds without any hit were thinned out: in the full panel of roughly 83,000, 20% have a hit.
Classification field: enter Satisfied for growth values not below 90%, Not satisfied for values below it.

The examples below pair each entry with its known result.
Molecule | Assigned Class
Cc1ccc(-c2nc3c(c(-c4ccccc4)nn3-c3ccccc3)c(-c3ccc(O)cc3)c2C#N)cc1 | Not satisfied
COc1ccc(-c2c(C(=O)NS(C)(=O)=O)n(Cc3cccc(C(F)(F)F)c3)c3ccccc23)cc1 | Not satisfied
Nc1ccccc1-c1cc2c(c3c1[nH]c1ccccc13)CCCCC2 | Satisfied
CCN1C(=O)N(CC)C2Nn3c(s/c(=C4\C(=O)N(CCC(C)C)c5ccccc54)c3=O)=NC21 (stereo not given) | Not satisfied

Input line: Decide: growth of O=c1c2cc(F)ccc2sc2c(NCCCNCCO)nc3ccc(F)cc3c12 >= 90%?
Output line: Not satisfied

* * *

- System: OVCAR-8 ovarian
- Test Method Notes: NCI-60 one-dose screen, 48 h (100 = growth as untreated, 0 = no growth, -100 = all killed)
- Applied Conditions: 10 µM unless noted
- Protocol: Growth inhibition of the OVCAR-8 human tumor cell line is measured as a screen for anti-cancer activity. Cells are grown in 96 well plates and exposed to the test compound for 48 hours. Compounds are tested at a single concentration, which is 10^-5 M for most compounds. The reported endpoint is percent growth (GI% or GIPRCNT), where numbers from 0 - 100% represent growth inhibition, and numbers from -100% - 0 represent cell death. For example, a value of 40 represents 60% growth inhibition. […]
About 83,000 compounds went through this panel and 20% of them were active in at least one assay; those are over-represented in the sample as a whole.
Measurement Name: growth (%)
Field: numeric (%). Do not append units.

Examples with answers:
Compound | Measure Unit | Recorded Measurement
COc1cc(/C=C/c2ccccc2)cc(OC)c1 | % | 97.7
CC(=O)CC(c1ccccc1)c1c(C)[nH]c2ccccc12 (stereo not given) | % | 97.4
Cc1ccc(C(CC(=O)O)c2c(C)[nH][nH]c2=O)cc1 (stereo not given) | % | 101
O=C(/C=C/c1ccc([N+](=O)[O-])o1)NNC(=O)c1cc2ccccc2cc1O | % | 8.19
COc1ccccc1/C=C1\Oc2cc(OCCN3CCC(Cc4ccccc4)CC3)ccc2C1=O | % | 81.2

Input line: Form field: growth recorded for O=C(Nc1c2ccccc2nc2ccccc12)c1ccccc1CN1C(=O)c2ccccc2C1=O with OVCAR-8 ovarian (enter value)
Output line: 31.3

Input line: Return growth measured with OVCAR-8 ovarian given this compound: COc1ccc(OC)c(/C=C/C(=O)N/N=C/c2ccc(Cl)cc2)c1
Output line: 21

Input line: Please tell me: growth of COc1ccc(S(=O)(=O)n2cc(C3OC(c4cc(OC)c(OC)c(OC)c4)=NN3C(C)=O)c3ccccc32)cc1OC (stereo not given) , system OVCAR-8 ovarian?
Output line: 80.9

Input line: Request - read-out growth | tested on OVCAR-8 ovarian | compound Cc1nc2ccccc2c(/C=C/c2ccc(Cl)cc2)c1C(=O)/C=C/c1ccc(C(F)(F)F)cc1
Output line: 2.79

Input line: Lookup: growth / OVCAR-8 ovarian / N#Cc1ccc(NC(=O)c2sc3nc4c(cc3c2N)C(=O)CCC4)cc1
Output line: 105

* * *

- Test system: NCI/ADR-RES ovarian
- Test Method Notes: NCI-60 one-dose screen, 48 h
- Applied Conditions: 10 µM unless noted
The panel holds about 83,000 compounds, 20% with a hit somewhere; the sample as a whole holds those more often. The source made the active and inactive calls. The calls were made as follows: active = growth percent below 10; inactive = the rest.
Your answer must be one of the following: 1 (active), 0 (inactive)

These recorded examples may help you get a feel for the data.
Molecule | Experimental Target | Assigned Class
CCc1ccc(Oc2c(-c3ccc(OCc4ccc(Cl)cc4)cc3O)nn(C)c2C(F)(F)F)cc1 | NCI/ADR-RES ovarian | 1
COc1cccc(/C=C2\C=C(c3ccccc3)N(Cc3ccccc3)C2=O)c1 | NCI/ADR-RES ovarian | 0
CCN1C(=O)N(CC)C2Nn3c(s/c(=C4\C(=O)Nc5ccccc54)c3=O)=NC21 (stereo not given) | NCI/ADR-RES ovarian | 0

Input line: Fill in: this test's call for COC1=C(C)C(=O)c2c(c(CCCl)c3n2CCC3O)C1=O (stereo not given) is ___
Output line: 1

Input line: Identify the outcome logged in this assay for the molecule shown: CC(C)C(=O)Nc1ccc(-c2nc(-c3cccc(OCCN4CCOCC4)c3)c(-c3ccnc(Br)c3)[nH]2)cc1
Output line: 0

Input line: Would you mind telling me which call this test gave Nc1ccc(Sc2ccc([N+](=O)[O-])c3nonc23)cc1 ?
Output line: 0

Input line: Hello, I am checking results. What call was entered for Cc1nn(-c2ccccc2)c(-n2ccnc2)c1/C=N/Nc1nc(-c2ccc(F)cc2)cs1 ?
Output line: 0

Input line: Tell me the recorded outcome of this test for COc1cc2cc(Oc3ccc(NC(=O)Nc4ccc(Cl)c(Cl)c4)cc3)c(C)nc2cc1OCCN1CCOCC1 .
Output line: 0

Input line: Hi, sorry to bother you, what did the test record for O=CN(SSN(C=O)C1CCCCC1)C1CCCCC1 ?
Output line: 0

Input line: Record request — test call for COc1cccc2c(=O)c3c(sc12)c(N1CCNCC1)nc1ccccc13
Output line: 0

* * *

- Test system: PC-3 prostate
- Test Method Notes: NCI-60 one-dose screen, 48 h
- Applied Conditions: 10 µM unless noted
- Procedure: Growth inhibition of the PC-3 human tumor cell line is measured as a screen for anti-cancer activity. Cells are grown in 96 well plates and exposed to the test compound for 48 hours. Compounds are tested at a single concentration, which is 10^-5 M for most compounds. The reported endpoint is percent growth (GI% or GIPRCNT), where numbers from 0 - 100% represent growth inhibition, and numbers from -100% - 0 represent cell death. For example, a value of 40 represents 60% growth inhibition. […]
About 83,000 compounds went through this panel and 20% of them were active in at least one assay; those are over-represented in the sample as a whole. Calls of active or inactive are those of the source. Rule for the calls: active = growth percent below 10; inactive = the rest.
// allowed return values: active, inactive

Consider the following illustrative entries.
Molecule | Experimental Target | Assigned Class
COc1ccc(C2C(N)=NNC2c2cccc(O)c2)cc1 (stereo not given) | PC-3 prostate | inactive
OC(COc1ccccc1Cl)CN1CCN(c2cccc(Cl)c2)CC1 (stereo not given) | PC-3 prostate | inactive
Nc1nn(C(=O)Nc2ccc(Cc3ccccc3)cc2)c2ccc(Cl)cc12 | PC-3 prostate | inactive
CN1CCN(c2ccc(-c3cc4c(Nc5ccc(F)c(Cl)c5)ncnn4c3)cc2)CC1 | PC-3 prostate | inactive
Brc1c[n+](Cc2ccc3ccccc3c2)cn1Cc1ccc2ccccc2c1 | PC-3 prostate | active

Input line: Please share the test call associated with Cc1cc(Cl)ccc1NS(=O)(=O)c1ccc(-c2cnc(C3CC3)o2)cc1 .
Output line: inactive

Input line: Recorded test call requested for Cc1nc2nc(SCC(=O)O)[nH]c2c(=O)[nH]1
Output line: inactive

Input line: Recorded call for CC(=O)CC[C@H]1C(=O)N[C@@H](C(C)C)C(=O)N[C@@H](Cc2cc(O)cc(F)c2)C(=O)N2CCC[C@H](N2)C(=O)O[C@H](/C(C)=C/C=C/C(=O)OC(C)(C)C)C/C=C/C=C/[C@H](O)[C@H](C)[C@H]1O ?
Output line: inactive

Input line: Test call for this molecule, please: Nc1ccc(Sc2ccc([N+](=O)[O-])c3nonc23)cc1
Output line: inactive

Input line: Short answer needed: outcome of this test for O=C(CCCCCCSc1nc(-c2ccccc2)cc(-c2ccccc2)n1)NO ?
Output line: inactive

Input line: Tell me the assay call for C=C1C(=O)O[C@H]2[C@H]1CC/C(COC(=O)NCCOCCOCC(=O)Nc1ccc(OC)c(C(N)=O)c1O)=C\CC[C@@]1(C)O[C@@H]21 please.
Output line: inactive
